measurement_description: phase I plasma pharmacokinetics (non-compartmental, LC-MS/MS)
Type: in vivo, human
particulars: human, plasma, po, 350 mg, multiple oral administration, 350 mg larotinib mesylate, steady state, plasma; read-out: Cmax,ss, mean (min–max)
Counter-ions that a name gives are not always drawn.
property_name: Cmax (ng/mL)
Report only the number, with the unit ng/mL understood.

For the molecule COc1cc2ncnc(Nc3ccc(F)c(Cl)c3)c2cc1OCCCN1C[C@@H]2OCCO[C@@H]2C1 [larotinib mesylate] , what Cmax is on record?
695

* * *

measurement_description: phase I plasma pharmacokinetics (non-compartmental, LC-MS/MS)
Type: in vivo, human
particulars: human, plasma, po, 220 mg, multiple oral administration, 220 mg larotinib mesylate, steady state, plasma; read-out: T1/2,ss, mean (min–max) (converted)
Counter-ions that a name gives are not always drawn.
property_name: half-life
Record the result as a number with its unit.

For the compound COc1cc2ncnc(Nc3ccc(F)c(Cl)c3)c2cc1OCCCN1C[C@@H]2OCCO[C@@H]2C1 [larotinib mesylate] , what half-life is on record?
3.15 days

* * *

measurement_description: phase I plasma pharmacokinetics (non-compartmental, LC-MS/MS)
Format: in vivo, human
particulars: human, plasma, po, 50 mg, multiple oral administration, 50 mg larotinib mesylate, steady state, plasma; read-out: Cmax,ss, mean (min–max)
Procedure: This was a phase I, single-center, open-label, dose-escalation study conducted at First Hospital of Jilin University, China (registration no.: ChiCTR-OPC-15007153 registered at http://www.chictr.org.cn). […] After cycle 0, larotinib mesylate was continuously administered once daily for 28 days in cycle 1, and the tolerance and pharmacokinetic characteristics of multiple doses were evaluated (Figure 2). […]
Where a name gives a salt, the structure may show the parent alone.
property_name: Cmax (ng/mL)
Report only the number, with the unit ng/mL understood.

For the molecule COc1cc2ncnc(Nc3ccc(F)c(Cl)c3)c2cc1OCCCN1C[C@@H]2OCCO[C@@H]2C1 [larotinib mesylate] , what Cmax is on record?
67.5

* * *

measurement_description: phase I plasma pharmacokinetics (non-compartmental, LC-MS/MS)
Format: in vivo, human
particulars: human, plasma, po, 150 mg, multiple oral administration, 150 mg larotinib mesylate, steady state, plasma; read-out: Cmax,ss, mean (min–max)
Structures can show the parent of a compound that is named as a salt.
property_name: Cmax
Record the result as a number with its unit.

For the molecule COc1cc2ncnc(Nc3ccc(F)c(Cl)c3)c2cc1OCCCN1C[C@@H]2OCCO[C@@H]2C1 [larotinib mesylate] , what Cmax is on record?
371 ng/mL

* * *

measurement_description: phase I plasma pharmacokinetics (non-compartmental, LC-MS/MS)
Assay type: in vivo, human
particulars: human, plasma, po, 150 mg, single oral administration, 150 mg larotinib mesylate, plasma; read-out: AUC0-∞, mean (min–max)
Where a name gives a salt, the structure may show the parent alone.
property_name: AUC(0-inf)
Record the result as a number with its unit.

For the compound COc1cc2ncnc(Nc3ccc(F)c(Cl)c3)c2cc1OCCCN1C[C@@H]2OCCO[C@@H]2C1 [larotinib mesylate] , what AUC(0-inf) is on record?
5660 ng·h/mL

* * *

measurement_description: phase I plasma pharmacokinetics (non-compartmental, LC-MS/MS)
Assay type: in vivo, human
particulars: human, plasma, po, 50 mg, single oral administration, 50 mg larotinib mesylate, plasma; read-out: AUC0-t, mean (min–max)
Where a name gives a salt, the structure may show the parent alone.
property_name: AUC(0-t)
Record the result as a number with its unit.

For the compound COc1cc2ncnc(Nc3ccc(F)c(Cl)c3)c2cc1OCCCN1C[C@@H]2OCCO[C@@H]2C1 [larotinib mesylate] , what AUC(0-t) is on record?
635 ng·h/mL

* * *

measurement_description: phase I plasma pharmacokinetics (non-compartmental, LC-MS/MS)
Assay type: in vivo, human
particulars: human, plasma, po, 50 mg, single oral administration, 50 mg larotinib mesylate, plasma; read-out: T1/2, mean (min–max) (converted)
Procedure: This was a phase I, single-center, open-label, dose-escalation study conducted at First Hospital of Jilin University, China (registration no.: ChiCTR-OPC-15007153 registered at http://www.chictr.org.cn). […] After cycle 0, larotinib mesylate was continuously administered once daily for 28 days in cycle 1, and the tolerance and pharmacokinetic characteristics of multiple doses were evaluated (Figure 2). […]
Where a name gives a salt, the structure may show the parent alone.
property_name: half-life (h)
Report only the number, with the unit h understood.

For the molecule COc1cc2ncnc(Nc3ccc(F)c(Cl)c3)c2cc1OCCCN1C[C@@H]2OCCO[C@@H]2C1 [larotinib mesylate] , what half-life is on record?
56.7

* * *

measurement_description: phase I plasma pharmacokinetics (non-compartmental, LC-MS/MS)
Assay type: in vivo, human
particulars: human, plasma, po, 50 mg, multiple oral administration, 50 mg larotinib mesylate, steady state, plasma; read-out: Vz/F,ss, mean (min–max)
Where a name gives a salt, the structure may show the parent alone.
property_name: Vd/F (L)
Report only the number, with the unit L understood.

For the compound COc1cc2ncnc(Nc3ccc(F)c(Cl)c3)c2cc1OCCCN1C[C@@H]2OCCO[C@@H]2C1 [larotinib mesylate] , what Vd/F is on record?
921

* * *

measurement_description: phase I plasma pharmacokinetics (non-compartmental, LC-MS/MS)
Format: in vivo, human
particulars: human, plasma, po, 350 mg, single oral administration, 350 mg larotinib mesylate, plasma; read-out: T1/2, mean (min–max) (converted)
Structures can show the parent of a compound that is named as a salt.
property_name: half-life (h)
Report only the number, with the unit h understood.

For the compound COc1cc2ncnc(Nc3ccc(F)c(Cl)c3)c2cc1OCCCN1C[C@@H]2OCCO[C@@H]2C1 [larotinib mesylate] , what half-life is on record?
44.6

* * *

measurement_description: urine and fecal excretion recovery, cycle 0
Assay type: in vivo
particulars: human, urine, oral; 220-mg group; read-out: 0–120 h excretion recovery percentage in urine
Counter-ions that a name gives are not always drawn.
property_name: dose excreted

For the molecule COc1cc2ncnc(Nc3ccc(F)c(Cl)c3)c2cc1OCCCN1C[C@@H]2OCCO[C@@H]2C1 [larotinib mesylate] , what dose excreted is on record?
1.36%

* * *

measurement_description: urine and fecal excretion recovery, cycle 0
Type: in vivo
particulars: human, urine, oral; 150-mg group; read-out: 0–120 h excretion recovery percentage in urine
Where a name gives a salt, the structure may show the parent alone.
property_name: dose excreted (%)
Report only the number, with the unit % understood.

For the compound COc1cc2ncnc(Nc3ccc(F)c(Cl)c3)c2cc1OCCCN1C[C@@H]2OCCO[C@@H]2C1 [larotinib mesylate] , what dose excreted is on record?
1.4

* * *

measurement_description: phase I plasma pharmacokinetics (non-compartmental, LC-MS/MS)
Type: in vivo, human
particulars: human, plasma, po, 300 mg, multiple oral administration, 300 mg larotinib mesylate, steady state, plasma; read-out: AUC0-∞,ss, mean (min–max)
Counter-ions that a name gives are not always drawn.
property_name: AUC(0-inf)
Record the result as a number with its unit.

For the compound COc1cc2ncnc(Nc3ccc(F)c(Cl)c3)c2cc1OCCCN1C[C@@H]2OCCO[C@@H]2C1 [larotinib mesylate] , what AUC(0-inf) is on record?
22600 ng·h/mL

* * *

measurement_description: phase I plasma pharmacokinetics (non-compartmental, LC-MS/MS)
Format: in vivo, human
particulars: human, plasma, po, 300 mg, multiple oral administration, 300 mg larotinib mesylate, steady state, plasma; read-out: Vz/F,ss, mean (min–max)
Counter-ions that a name gives are not always drawn.
property_name: Vd/F (L)
Report only the number, with the unit L understood.

For the molecule COc1cc2ncnc(Nc3ccc(F)c(Cl)c3)c2cc1OCCCN1C[C@@H]2OCCO[C@@H]2C1 [larotinib mesylate] , what Vd/F is on record?
1060

* * *

measurement_description: phase I plasma pharmacokinetics (non-compartmental, LC-MS/MS)
Format: in vivo, human
particulars: human, plasma, po, 350 mg, single oral administration, 350 mg larotinib mesylate, plasma; read-out: AUC0-t, mean (min–max)
Where a name gives a salt, the structure may show the parent alone.
property_name: AUC(0-t) (ng·h/mL)
Report only the number, with the unit ng·h/mL understood.

For the molecule COc1cc2ncnc(Nc3ccc(F)c(Cl)c3)c2cc1OCCCN1C[C@@H]2OCCO[C@@H]2C1 [larotinib mesylate] , what AUC(0-t) is on record?
6120

* * *

measurement_description: phase I plasma pharmacokinetics (non-compartmental, LC-MS/MS)
Format: in vivo, human
particulars: human, plasma, po, 50 mg, multiple oral administration, 50 mg larotinib mesylate, steady state, plasma; read-out: AUC0-∞,ss, mean (min–max)
Counter-ions that a name gives are not always drawn.
property_name: AUC(0-inf) (ng·h/mL)
Report only the number, with the unit ng·h/mL understood.

For the molecule COc1cc2ncnc(Nc3ccc(F)c(Cl)c3)c2cc1OCCCN1C[C@@H]2OCCO[C@@H]2C1 [larotinib mesylate] , what AUC(0-inf) is on record?
4920

* * *

measurement_description: phase I plasma pharmacokinetics (non-compartmental, LC-MS/MS)
Type: in vivo, human
particulars: human, plasma, po, 50 mg, single oral administration, 50 mg larotinib mesylate, plasma; read-out: Vz/F, mean (min–max)
Protocol: This was a phase I, single-center, open-label, dose-escalation study conducted at First Hospital of Jilin University, China (registration no.: ChiCTR-OPC-15007153 registered at http://www.chictr.org.cn). […] After cycle 0, larotinib mesylate was continuously administered once daily for 28 days in cycle 1, and the tolerance and pharmacokinetic characteristics of multiple doses were evaluated (Figure 2). […]
Counter-ions that a name gives are not always drawn.
property_name: Vd/F (L)
Report only the number, with the unit L understood.

For the molecule COc1cc2ncnc(Nc3ccc(F)c(Cl)c3)c2cc1OCCCN1C[C@@H]2OCCO[C@@H]2C1 [larotinib mesylate] , what Vd/F is on record?
5070
